System: corn (Zea mays)
procedure_summary: Test A postemergence greenhouse test
Assay type: in vivo
stated_conditions: 31 g ai/ha
Assign Plant response rating (0 to 100 scale) to each entry below.
In your answer, state the number alone without any accompanying words.

Exercise: Provide the documented Plant response rating (0 to 100 scale) with corn (Zea mays) as the system for Cc1cc(Cl)c2ccccc2c1-c1c(O)c(Cl)nn(C)c1=O [Cpd. No. 65]
Key: 30

Exercise: Provide value of Plant response rating (0 to 100 scale) for this record tested with corn (Zea mays): Cc1ccc2ccc(F)cc2c1-c1c(O)c(Cl)nn(C)c1=O [Cpd. No. 21]
Key: 10

Exercise: Lab note: need Plant response rating (0 to 100 scale) with corn (Zea mays) for entry Cc1ccc2ccc(C)c(-c3c(O)c(Cl)nn(C)c3=O)c2c1 [Cpd. No. 20] , please look it up.
Key: 30

Exercise: Lookup: Plant response rating (0 to 100 scale) / corn (Zea mays) / Cc1ccc2ccc(Cl)cc2c1-c1c(O)c(Cl)nn(C)c1=O [Cpd. No. 22]
Key: 0

Cited source: patent US12435044B2
